MEASUREMENT DESCRIPTION: melting temperature; fluorescence melt of hairpins on a sequencing array, two-state fit, raised by 9.35 °C to match UV melts
ASSAY CONTEXT: sodium 0.088 M
Please assign 0.0 whenever Tm is at or above 50 °C, and 1.0 whenever it is below.

Below, 3 sequences whose answers are already recorded.
GAACAACGAAAGTTTTTC (((.(((....))).)))    1.0
GAAGCCCCGAAAGGGTTC (((..(((....))))))    1.0
GATCTCGGAAACAAGATC (((((.(....).)))))    1.0

Qu. Determine if GGCTATGCGAAAGCAGCC (((..(((....)))))) shows Tm strictly lower than 50 °C.
Ans. 0.0

Qu. Another: GGACAGCGAAAGCTTTCC (((.(((....))).)))
Ans. 1.0

Qu. Another: GCGTAAGCGAAAGCTCGC (((..(((....))))))
Ans. 1.0

Qu. Another: GTCAACGAAAGTTCAGAC ((((((....)))..)))
Ans. 1.0

Qu. Another: GATCGGCTCTCCGATC ((((((....))))))
Ans. 0.0

Qu. Another: GCAGCGCGAAAGCCCAGC ((.(.((....)).).))
Ans. 1.0

====

Listing: folding enthalpy of selected sequences
MEASUREMENT DESCRIPTION: folding enthalpy; higher = less favourable; fluorescence melt of hairpins on a sequencing array, two-state fit
ASSAY CONTEXT: sodium 0.088 M
All answers are understood in kcal/mol, so give the number only.

Worked cases, answers included:
CGGACGGAAACGTGTCCG ((((((....)))..)))    -32.8
GTTATGCGAAAGCAAAAC (((.(((....))).)))    -21
GATCCACTGCTGGATC ((((((....))))))    -41.4
GACTGCGGAAACGTAGTC ((((.((....)).))))    -39.6

Qu. Give its folding enthalpy value. Item: GGCGACGAAAGTCTCGCC ((((((....)))..)))
Ans. -25.7

Qu. Another: GATATTGAAAAATATC ((((((....))))))
Ans. -22.6

Qu. Another: GTAAAACCGAAAGGTTAC (((..(((....))))))
Ans. -14.9

Qu. Another: GACAGGAAACTGTC (((((....)))))
Ans. -31.3

Qu. Another: GTCCTAGCGAAAGCTGAC (((..(((....))))))
Ans. -12.7

Qu. Another: GCCGGTTCGAAAGAAGGC (((..(((....))))))
Ans. -22.8

Qu. Another: GGAAAGCGAAAGCTATCC (((.(((....))).)))
Ans. -25.2

Qu. Another: GCCTTGCGAAAGCTACGC ((.(.((....)).).))
Ans. -10.2

Qu. Another: GTTGAACGAAAGTTGAAC (((.(((....))).)))
Ans. -25.9

Qu. Another: GGATTAGGAAACTAATCC (((((((....)))))))
Ans. -40.5

====

MEASUREMENT DESCRIPTION: melting temperature; fluorescence melt of hairpins on a sequencing array, two-state fit, raised by 9.35 °C to match UV melts
ASSAY CONTEXT: sodium 0.088 M
Listing: Tm of selected sequences
All answers are understood in °C, so give the number only.

Worked cases, answers included:
TGGCTGAAAAGCCA (((((....)))))    57.9
GGCTTCGAAAGAAGTGCC ((((((....)))..)))    42.6
GATCTAATCATAGATC ((((((....))))))    38.6

Qu. Give its Tm value. Item: GCAGTGGCGAAAGCCTGC (((..(((....))))))
Ans. 58.3

====

MEASUREMENT DESCRIPTION: melting temperature; fluorescence melt of hairpins on a sequencing array, two-state fit, raised by 9.35 °C to match UV melts
ASSAY CONTEXT: sodium 0.088 M
Listing: Tm of selected sequences
All answers are understood in °C, so give the number only.

Worked cases, answers included:
GTTCTGGGAAACCGGAAC ((((.((....)).))))    50.9
GAAGACGAAAGTCATTTC ((((((....)))..)))    23.9
GCGGCGCGAAAGCACAGC ((.(.((....)).).))    63.7
GCGATGGGAAACCGTCGC ((((.((....)).))))    58.9
GTGGTCGGAAACGATCAC (((.(((....))).)))    55.7

Qu. Give its Tm value. Item: GCAAAAGCGAAAGCTTGC (((..(((....))))))
Ans. 51.4

====

MEASUREMENT DESCRIPTION: melting temperature; fluorescence melt of hairpins on a sequencing array, two-state fit, raised by 9.35 °C to match UV melts
ASSAY CONTEXT: sodium 0.088 M
READOUT NAME: Tm
Form entry: enter the amount, then its unit.

GCTCGACGAAAGTCTAGC (((.(((....))).)))    49.6 °C
GTCACTCGAAAGAGGGAC (((.(((....))).)))    60.9 °C
GATCTGGCTGCAGATC ((((((....))))))    50 °C
GCGGACGGCCGC ((((....))))    59.4 °C
GATCAAGTCTTTGATC ((((((....))))))    48.9 °C

Qu. Give its Tm value. Item: GATCAGATTCTGATC ((((((...))))))
Ans. 48.5 °C

====

MEASUREMENT DESCRIPTION: folding enthalpy; higher = less favourable; fluorescence melt of hairpins on a sequencing array, two-state fit
ASSAY CONTEXT: sodium 0.088 M
READOUT NAME: folding enthalpy

Worked cases, answers included:
GGGCATGGAAACATGCTC (.(((((....))))).)    -30.1 kcal/mol
GCTAAGCGAAAGCTCGGC ((..(((....)))..))    -19.7 kcal/mol

Qu. Give its folding enthalpy value. Item: GCCTAAGGAAACTTAGAC (.(((((....))))).)
Ans. -19.8 kcal/mol

====

MEASUREMENT DESCRIPTION: melting temperature; fluorescence melt of hairpins on a sequencing array, two-state fit, raised by 9.35 °C to match UV melts
ASSAY CONTEXT: sodium 0.088 M
Listing: Tm of selected sequences
All answers are understood in °C, so give the number only.

Worked cases, answers included:
GAGCACGAAAGTGATCTC ((((((....)))..)))    57.1
GATCCCCAACGGGATC ((((((....))))))    57.2
GGAAACGGAAACGTTTTC (.(((((....))))).)    46.8

Qu. Give its Tm value. Item: GCTTTGCGAAAGCAAGC (((.(((....))))))
Ans. 53.2

Qu. Another: GATCACTTAGTGATC ((((((...))))))
Ans. 58.6

Qu. Another: GCATACGGAAACATATGC (((((.(....).)))))
Ans. 37

Qu. Another: GTTACAGGAAACTGTGAC ((.((((....)))).))
Ans. 44.6

Qu. Another: GCTTTGCCGAAAGGCAGC (((..(((....))))))
Ans. 35.8

Qu. Another: GATCCGGGAAACCAGATC ((((.((....)).))))
Ans. 35.6

Qu. Another: CGAGCGGAAACGCCCTCG ((((((....)))..)))
Ans. 35.9

Qu. Another: GCGCTCGGAAACGAGCAC (.(((((....))))).)
Ans. 51.5

Qu. Another: GCAACGGAAACGTTGC ((((((....))))))
Ans. 68.3

Qu. Another: TTGCTGAAAAGCAA (((((....)))))
Ans. 49.2

Qu. Another: GATCATGACTATGATC ((((((....))))))
Ans. 54.2

Qu. Another: GCAACCGAAAGGTTGTGC ((((((....)))..)))
Ans. 65.7

Qu. Another: GAGTGAACGAAAGTTCTC (((..(((....))))))
Ans. 29.9

====

MEASUREMENT DESCRIPTION: folding enthalpy; higher = less favourable; fluorescence melt of hairpins on a sequencing array, two-state fit
ASSAY CONTEXT: sodium 0.088 M
Listing: folding enthalpy of selected sequences
All answers are understood in kcal/mol, so give the number only.

Worked cases, answers included:
GCCAAGGGAAACCTTGGC (((((((....)))))))    -37.5
GCGTTCTTACGC ((((....))))    -27

Qu. Give its folding enthalpy value. Item: GTGTAAACGAAAGTTCAC (((..(((....))))))
Ans. -18

Qu. Another: GGCGTCGGAAACGACGTC (.(((((....))))).)
Ans. -23.4

Qu. Another: GTGTGTCGAAAGACCAC (((.(((....))))))
Ans. -28.9

Qu. Another: GGTTCGGGAAACCGAGTC (..((((....))))..)
Ans. -13.1

Qu. Another: GTTCGCGAAAGCGCCAAC ((((((....)))..)))
Ans. -8.24

Qu. Another: GTGGTTGCGAAAGCACAC (((..(((....))))))
Ans. -15.6

Qu. Another: GACGGCACGAAAGTGGTC (((..(((....))))))
Ans. -14.6
